// reported 8 ppm gall ratings per item
# Test system: Meloidogyne incognita
# Protocol description: M. incognita miniaturized greenhouse assay on cucumber seedlings (root galling)
# Assay type: in vivo
# Condition notes: 8 ppm; cucumber roots; average of triplicate gall rating, scale 0=0-5%, 1=6-20%, 2=21-50%, 3=51-100% root mass galled
# Method: The test compound is dissolved in an acetone solution and added to water. A sprouted cucumber seedling is placed into a vial with dry sand and the water-chemical solution is added immediately. Twenty four hours later Meloidogyne incognita eggs are added to the vials and 10 to 12 days later the roots are evaluated for nematode galling. Cucumber seeds are sprouted for 3 days in moist paper towels. Acceptable sprouts should be 3 to 4 cm long with several lateral roots just emerging. […]
Marks after values point to notes of the source that are not given here.
Experimental readout: 8 ppm gall ratings

1. Clc1ccc(Oc2noc(-c3ccco3)n2)cc1 [Name 3] = 0^b
2. Cc1ccc(-c2coc(-c3ccco3)n2)c(C)c1 [Name 7] = 1.33^c
3. Clc1ccc(-c2cnc(Sc3cccs3)o2)cc1 [Name 9] = 1.33^d
4. Clc1ccc(-c2noc(Cc3ccco3)n2)cc1 [Name 1] = 1.3^a
5. Clc1ccc(-c2coc(-c3ccco3)n2)cc1 [Name 8, 4-(4-chlorophenyl)-2-(furan-2-yl)oxazole] = 0.67^d
6. Clc1cccc(-c2noc(Cc3ccco3)n2)c1 [Name 2] = 1.3^a
7. Clc1ccc(Cc2nsc(-c3ccco3)n2)cc1 [Name 5] = 0.67^b
8. Clc1ccc(-c2coc(-c3ccco3)n2)c(Cl)c1 [Name 6] = 0.33^c
9. Clc1cccc(Oc2noc(-c3ccco3)n2)c1 [Name 4] = 0^b
